Experiment: Plasma pharmacokinetics, LC/MS/MS, non-compartmental analysis
Format: in vivo, human
Conditions: human, plasma, po, 32 mg, t1/2, 32 mg (QD), single dose; mean, n=4
PARAMETER: half-life (h)
Give bare numbers, in h.

Annotate the molecule CS(=O)(=O)N1CCc2c(-c3cnc(N)nc3)nc(N3CCOCC3)nc21 with its measured half-life.
12.2

* * *

Assay: Plasma pharmacokinetics, LC/MS/MS, non-compartmental analysis
Assay type: in vivo, human
Conditions: human, plasma, po, 72 mg, Cmax, 72 mg (BID), repeat dose; n=1
PARAMETER: Cmax (ng/mL)
Answers are plain numbers, in ng/mL.

Please report Cmax for the following molecule: CS(=O)(=O)N1CCc2c(-c3cnc(N)nc3)nc(N3CCOCC3)nc21
631

* * *

Test: Plasma pharmacokinetics, LC/MS/MS, non-compartmental analysis
Format: in vivo, human
Settings: human, plasma, po, 56 mg, AUClast, 56 mg (QD), single dose; mean, n=3; AUClast = AUC0-72h
PARAMETER: AUC(0-t) (ng·h/mL)
Give bare numbers, in ng·h/mL.

Report AUC(0-t) for CS(=O)(=O)N1CCc2c(-c3cnc(N)nc3)nc(N3CCOCC3)nc21 [CH5132799]
969

* * *

Experiment: Plasma pharmacokinetics, LC/MS/MS, non-compartmental analysis
Format: in vivo, human
Conditions: human, plasma, po, 8 mg, Cmax, 8 mg (QD), single dose; mean, n=3
PARAMETER: Cmax (ng/mL)
Answers are plain numbers, in ng/mL.

Fill in Cmax for record CS(=O)(=O)N1CCc2c(-c3cnc(N)nc3)nc(N3CCOCC3)nc21
41.1

* * *

Assay: Plasma pharmacokinetics, LC/MS/MS, non-compartmental analysis
Format: in vivo, human
Conditions: human, plasma, po, 16 mg, Cmax, 16 mg (QD), repeat dose; mean, n=3
PARAMETER: Cmax (ng/mL)
One number for each entry, in ng/mL.

Item CS(=O)(=O)N1CCc2c(-c3cnc(N)nc3)nc(N3CCOCC3)nc21 : provide Cmax
100

* * *

Assay: Plasma pharmacokinetics, LC/MS/MS, non-compartmental analysis
Format: in vivo, human
Conditions: human, plasma, po, 2 mg, AUClast, 2mg (QD), single dose; mean, n=3; AUClast = AUC0-72h
PARAMETER: AUC(0-t) (ng·h/mL)
Give bare numbers, in ng·h/mL.

Give the measured AUC(0-t) for CS(=O)(=O)N1CCc2c(-c3cnc(N)nc3)nc(N3CCOCC3)nc21
53

* * *

Assay: Plasma pharmacokinetics, LC/MS/MS, non-compartmental analysis
Type: in vivo, human
Settings: human, plasma, po, 32 mg, Cmax, 32 mg (QD), repeat dose; mean, n=3
PARAMETER: Cmax (ng/mL)
Numbers only, in ng/mL.

Determine its reported Cmax: CS(=O)(=O)N1CCc2c(-c3cnc(N)nc3)nc(N3CCOCC3)nc21 [CH5132799]
345

* * *

Assay: Plasma pharmacokinetics, LC/MS/MS, non-compartmental analysis
Assay type: in vivo, human
Conditions: human, plasma, po, 32 mg, AUC0-24h, 32 mg (QD), repeat dose; mean, n=2
PARAMETER: AUC(0-t) (ng·h/mL)
One number for each entry, in ng·h/mL.

Please list AUC(0-t) recorded for the compound CS(=O)(=O)N1CCc2c(-c3cnc(N)nc3)nc(N3CCOCC3)nc21
1740

* * *

Assay: Plasma pharmacokinetics, LC/MS/MS, non-compartmental analysis
Type: in vivo, human
Conditions: human, plasma, po, 96 mg, Cmax, 96 mg (QD), single dose; mean, n=4
PARAMETER: Cmax (µg/mL)
Numbers only, in µg/mL.

# return recorded Cmax for entry CS(=O)(=O)N1CCc2c(-c3cnc(N)nc3)nc(N3CCOCC3)nc21
0.206
